Biological target: human TYK2 catalytic kinase (JH1) domain (Homo sapiens (Human))
Sequence (P29597 897-1176): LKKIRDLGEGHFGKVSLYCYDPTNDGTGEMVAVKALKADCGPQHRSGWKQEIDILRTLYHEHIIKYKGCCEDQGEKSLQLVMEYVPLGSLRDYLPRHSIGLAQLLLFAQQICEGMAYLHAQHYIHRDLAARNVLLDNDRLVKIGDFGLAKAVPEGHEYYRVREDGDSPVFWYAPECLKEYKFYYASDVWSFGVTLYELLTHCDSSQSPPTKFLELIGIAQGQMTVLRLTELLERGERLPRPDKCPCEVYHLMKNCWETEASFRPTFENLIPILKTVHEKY
Assay: ADP-Glo Kinase Assay, recombinant TYK2 catalytic kinase (JH1) domain
Type: biochemical
Conditions: recombinant JH1 domain 2 nM, 10 μM ATP, JAK3-974 peptide, mean, read-out: TYK2 biochem IC50 (nM) Mean
Protocol: Compounds of the disclosure were assessed for their ability to inhibit TYK2, JAK1, JAK2, and JAK3 activity. The inhibitory properties of the compounds of the disclosure described herein can be evidenced by testing in any one of the following protocols. The kinase activity of recombinantly generated catalytic kinase (also known as JH1) domain of human JAK1, JAK2, JAK3 and TYK2 were evaluated in a plate-based assay using the ADP-Glo™ Kinase Assay platform. […]
measured_metric: IC50 (nM)
Give just the numeric value; nM need not be written.

# return recorded IC50 for input `N#Cc1cc(-c2nc3c(N4CC5CCC(C4)N5C(=O)[C@@H]4C[C@H]4F)ccnc3[nH]2)ccn1`
12

Return IC50 (reported value) for this compound: `Cn1cc(-c2cc3c(N4CC5CCC(C4)N5C(=O)C(C)(F)F)ncnn3c2)cn1`
206

Given the compound `O=C([C@@H]1C[C@H]1F)N1C2CCC1CN(c1ccnn3cc(-c4ccc(F)nc4)cc13)C2` , write its reported IC50.
1.8

Name the recorded IC50 of the item O=C(C1C(F)(F)C12CCC2)N1C2CCC1CN(c1ncnn3cc(-c4cnn(C(F)F)c4)cc13)C2 (stereo not shown) in your answer.
156
